# Tested on: C6 cells
# run_description: Protection from subsequent challenge with wild type C6 cells
# Format: in vivo, rat
Square brackets hold non-standard residues; d marks the D form. Ends that are not written are not given here. NMeA = CN[C@@H](C)C(=O)O
endpoint_label: Protection from wild type cell challenge

input_sequence	recorded_measurement
LRLTATGDLL (D-amino acids) [LRLTATGDLL (D-amino acid)]	yes
ALEPGPVTA [point mutant of …]	no
YLEXGXVTA (X: N-Methyl-A) (YLE[NMeA]G[NMeA]VTA) [… with prolines replaced by an N-methyl amino acid]	yes
LLDGTATLRL [MHC Class I peptide derived from gp100, human melanoma specific antigen]	yes

====

# System: C6 cells
# run_description: Protection from subsequent challenge with wild type C6 cells
# Format: in vivo, rat
# Method: Synthetic peptide sequences listed above were tested at 5×10^−M on C6 cells. Tests for apoptosis and for protection from subsequent challenge with C6 cells are described herein. Point mutations are shown in bold characters.

input_sequence	Protection from wild type cell challenge
YLAPGPVTA [point mutant of …]	yes
YLEPGAVTA	no
YLRPGPVRA [double mutant (E3 and T8) of …]	no
YLRPGPVTA [point mutant of …]	yes
YLEPAPVTA [point mutant of …]	no
ATVPGPELY (D-amino acids) [ATVPGPELY (D-amino acid)]	yes

====

# System: CaOV3 cells (human ovarian carcinoma cells)
# run_description: Diffusion chamber assay, CaOV3 cells in mice, peptide injected s.c. next to chamber
# Assay type: in vivo, mouse
# assay_setup: Balb/c mice, 0.2 ml of 0.05 mM peptide s.c. next to chamber, 24 hours

input_sequence	Percent Recovery
YLEPGAVTA	280%
YLRPGPVTA [point mutant of …]	3.0%
YLEPGPVTA [MHC Class I peptide recognized by melanoma-specific human CTL lines]	0.2%
LRLTATGDLL (D-amino acids) [LRLTATGDLL (D-amino acid)]	6.6%

====

# Tested on: C6 cells
# run_description: Protection from subsequent challenge with wild type C6 cells
# Assay type: in vivo, rat
endpoint_label: Protection from wild type cell challenge

input_sequence	endpoint_label	recorded_measurement
YLEPGPATA [point mutant of …]	Protection from wild type cell challenge	yes
YLEPGPVKA [point mutant of …]	Protection from wild type cell challenge	yes
YLEPGPVTA [MHC Class I peptide recognized by melanoma-specific human CTL lines]	Protection from wild type cell challenge	yes
YAEPGPVTA [point mutant of …]	Protection from wild type cell challenge	no
YLEAGPVTA [point mutant of …]	Protection from wild type cell challenge	no
YLEPGPVAA [point mutant of …]	Protection from wild type cell challenge	yes
